System: SK-MEL-2 melanoma
Test: NCI-60 one-dose screen, 48 h (100 = growth as untreated, 0 = no growth, -100 = all killed)
Details: 10 µM unless noted
Procedure: Growth inhibition of the SK-MEL-2 human tumor cell line is measured as a screen for anti-cancer activity. Cells are grown in 96 well plates and exposed to the test compound for 48 hours. Compounds are tested at a single concentration, which is 10^-5 M for most compounds. The reported endpoint is percent growth (GI% or GIPRCNT), where numbers from 0 - 100% represent growth inhibition, and numbers from -100% - 0 represent cell death. For example, a value of 40 represents 60% growth inhibition. […]
About 83,000 compounds went through this panel and 20% of them were active in at least one assay; those are over-represented in the sample as a whole.
measuredProperty: growth (%)
Just the number in %, nothing appended.

# return recorded growth for input O=C(CSc1nc2sc3c(c2c(=O)n1-c1ccc(Cl)cc1)CCCC3)NNC(=O)Nc1cccc(C(F)(F)F)c1
-8.08

# return recorded growth for input Clc1ccc2oc3c(NCCCN4CCOCC4)c4ccccc4nc3c2c1
56.8

Consider the molecule CC(O)C(NC(=O)C1CCCN1C(=O)CNC(=O)C1CC(=O)NCC(=O)NC(Cc2c[nH]c3ccccc23)C(=O)NC(Cc2ccc(O)cc2)C(=O)NCC(=O)NC(CO)C(=O)NC(CCC(N)=O)C(=O)NC(Cc2c[nH]c3ccccc23)C(=O)N1)C(=O)NCC(=O)NC(CCC(N)=O)C(=O)NC(CCCNC(=N)N)C(=O)NC(CC(=O)O)C(=O)O (stereo not drawn) . State its measured growth.
116

Item Cc1cccc2sc(/N=C(\N)C(Cl)(Cl)Cl)nc12 : provide growth
118

# return recorded growth for input COc1ccc(/C=C/C(=O)c2ccc(NC(=O)CSc3nnc(-c4ccc5nc(-c6ccc(Cl)cc6)[nH]c5c4)o3)cc2)cc1
111

Please indicate growth recorded for COc1ccc2[nH]cc(-c3cc(N)n4nc(-c5c[nH]c6ccc(OC)cc56)cc4n3)c2c1
72.5

Given O=C(N/N=C/c1ccc([N+](=O)[O-])s1)c1[nH]c2ccc(Br)cc2c1-c1ccccc1 , respond with its growth.
-19.4

Check the records and state growth for CNC(=O)c1cc(-c2ccc(NC(=O)Nc3ccc(N4CCOCC4)c(C(F)(F)F)c3)cc2)nc2cccnc12
67.8

Query growth for CC(=O)c1ccc(Nc2nc(SC(C)C)nc(-c3ccccc3)c2C#N)cc1
117

Give the reported value of growth for this record: CN(C)c1ccc(/C=c2\sc3nc4ccccc4n3c2=O)cc1
118

Read off the recorded growth for Clc1ccc2c(NCCCN3CCOCC3)c3oc4ccc(Cl)cc4c3nc2c1
122

Tell me growth reported for OC1CCc2c(-c3ccc4ncnc(N5CCc6cc(F)c(Cl)cc65)c4c3)cncc21 (stereo not drawn)
46.7

Tell me its growth given O=C(N/N=C/c1ccc[nH]1)c1[nH]c2ccc(Br)cc2c1-c1ccccc1 as the entry.
31.9

Query growth for O=c1/c(=C\c2ccc(-c3ccccc3)o2)sc2nc(-c3ccccc3)nn12
114

Complete the entry with growth for CN(C)CCCOc1c2ccc(Cl)cc2nc2c1oc1ccc(Cl)cc12
58.5

Identify measured growth associated with O=C(N/N=C/c1ccco1)c1[nH]c2ccc(Br)cc2c1-c1ccccc1
14.4

Provide growth value for the following molecule: OC1CCN(CCCOc2c3ccc(Cl)cc3nc3c2oc2ccccc23)CC1
-86.3

Hello, please tell me recorded growth for this one: C[C@@H]1CN(c2ccc3ncc(C#Cc4cncc(C(=O)Nc5ccc(CN6CCN(C)CC6)c(C(F)(F)F)c5)c4)n3n2)C[C@H](C)O1
-89.7

Return growth (reported value) for this molecule: c1ccc2c(NCCCn3ccnc3)c3oc4ccccc4c3nc2c1
-27.2

Identify measured growth associated with CC(=O)Oc1ccccc1C(=O)Nc1ccc(C(=O)/C=C/c2ccncc2)cc1
108

Name the recorded growth of the item COc1ccc(-c2csc(N/N=C/c3c(-c4ccc(S(C)(=O)=O)cc4)nc4ccccn34)n2)cc1 in your answer.
114

Tell me growth reported for Cc1ccccc1NC(=O)/C=C/c1ccc(OCCOc2ccc3c(C)cc(=O)oc3c2)cc1
103

Identify the reported growth for the following entry. CCOC(=O)c1c(Nc2ccccc2)nn2c(N)c(C#N)c(-c3ccc(Cl)cc3)nc12
87

Look up and state reported growth for OC1CCN(CCCOc2c3ccc(Cl)cc3nc3c2oc2ccc(Cl)cc23)CC1
50.6

Provide measured growth value, entry: COc1cccc(-c2nn(-c3ccccc3)cc2-c2ccnc(N3CCN(C(=O)c4ccccc4)CC3)c2)c1
89

Respond only with growth recorded for CSCCC(C(=O)O)N1C(=O)/C(=C/c2ccc(O)c(O)c2)SC1=S (stereo not drawn)
133

Read the entry CC1=C(C)C(=O)C(Nc2cccc(C(F)(F)F)c2)=C(Cl)C1=O and write its reported growth.
85.8

Give a short answer stating reported growth for COc1cc(N=Cc2sc(Nc3nccs3)nc2O)cc(OC)c1OC .
74

Read the entry COc1cc(/C=C/C(=O)c2ccc(F)cc2)ccc1Oc1nc(NCCO)nc(N2CCOCC2)n1 and write its reported growth.
93.9

Specify measured growth for C#Cc1nc(C2=C(C)C(OC(=O)CCC(=O)O)CC2)cs1 (stereo not drawn) .
114

Give the reported growth for this molecule. COC(=O)C1CCCN(S(=O)(=O)/N=C2\NC(=O)NC2=C(Cl)Cl)C1 (stereo not drawn)
106

Give the measured growth for COc1ccc(COc2ccc(/C=C3/C(=O)Nc4cc(Cl)ccc43)cc2)cc1
114

Identify measured growth corresponding to NS(=O)(=O)c1ccc(Nc2nc(SCC(=O)c3ccc(Cl)cc3)nc3ccccc23)cc1
100

For the molecule N[C@@H](Cc1cn(-c2ccnc3ccccc23)nn1)C(=O)O , give its measured growth value.
124

Fill in reported growth for this entry: O=C1NC(=C(Cl)Cl)/C(=N/S(=O)(=O)N2CCCCC2CC2(C(F)(F)F)N=N2)N1 (stereo not drawn)
-4.45

Please supply the value of reported growth for the item Cc1ccc2c(n1)C(=O)C(Cl)=C(Nc1cccc(C(C)C)c1)C2=O
47.2

Given the molecule COC(=O)C(Cc1ccccc1)NS(=O)(=O)/N=C1\NC(=O)NC1=C(Cl)Cl (stereo not drawn) , write its reported growth.
60.3

Return reported growth. Input molecule: C/C(=N\NC(N)=O)c1c(O)sc(=O)[nH]c1=O
109

====

system: CAKI-1 renal; assay: NCI-60 one-dose screen, 48 h (100 = growth as untreated, 0 = no growth, -100 = all killed); details: 10 µM unless noted
The panel holds about 83,000 compounds, 20% with a hit somewhere; the sample as a whole holds those more often.
measuredProperty: growth (%)
Write it as a number; the unit % goes unstated.

Using the record for Oc1c(Cl)cc(Cl)c2ccc(CN3CCCCC3)nc12 , state its measured growth.
36.2

Give a short answer stating reported growth for COc1cc(-c2nc3ccc(-c4nnc(SCC(=O)Nc5ccc(C(C)=O)cc5)o4)cc3[nH]2)cc(OC)c1OC .
92.7

Return value of growth for input C#Cc1nc(C2=C(C)C(O)CC2)cs1 (stereo not drawn) , no commentary.
110

Supply recorded growth for CN(C)CCCNc1c2ccc(Cl)cc2nc2c1oc1ccc(Cl)cc12 here.
-85

Read off the recorded growth for OC1CCc2c(-c3ccc4ncnc(N5CCc6cc(F)c(Cl)cc65)c4c3)cncc21 (stereo not drawn)
22.5

Return growth (reported value) for this compound: Cn1c(SCC(=O)Nc2ccc(-c3nc4ccc([N+](=O)[O-])cc4[nH]3)cc2)nc2ccccc2c1=O
45.9

Identify growth associated with the compound COc1cc(/C=C/C(=O)c2ccc(C(F)(F)F)cc2)ccc1Oc1nc(NCCO)nc(N2CCOCC2)n1
82.7

Return reported growth. Input compound: O=C(O)CCCCCN1C(=O)/C(=C/c2ccc(O)c(O)c2)SC1=S
102

====

system: U251 CNS; experiment: NCI-60 one-dose screen, 48 h (100 = growth as untreated, 0 = no growth, -100 = all killed); conditions: 10 µM unless noted
About 83,000 compounds went through this panel and 20% of them were active in at least one assay; those are over-represented in the sample as a whole. The source made the active and inactive calls. How the source made its calls: active means growth percent below 10; inactive means the rest.
Answer each item with its documented growth.

Read the entry CCOC(=O)c1c(Nc2ccccc2)nn2c(N)c(C#N)c(-c3ccc(OC)cc3)nc12 and write its reported growth.
71.3% (inactive)

Provide growth value for the following compound: CN(C)CCCNc1c2ccc(Cl)cc2nc2c1oc1ccc(Cl)cc12
-50.9% (active)

Identify measured growth associated with Clc1ccc2c(NCCCn3ccnc3)c3oc4ccc(Cl)cc4c3nc2c1
60.5% (inactive)

Provide only the value of recorded growth for COc1ccc(N/N=C/c2c(-c3ccc(S(C)(=O)=O)cc3)nc3ccccn23)cc1
69.4% (inactive)

Please give the documented growth of CCCCN1C(=O)/C(=c2\sc3n(c2=O)C2C(NN=3)N(CC)C(=O)N2CC)c2cc(Cl)ccc21 (stereo not given)
65.4% (inactive)

Tell me its growth given C#Cc1nc(C2=C(C)C(O)/C(=N/O)C2)cs1 (stereo not given) as the entry.
109% (inactive)

Give the reported value of growth for this record: O=C(CCN1C(=O)/C(=C/c2ccccc2)SC1=S)N1CCOCC1
99.9% (inactive)

Give recorded growth. O=C1[C@H]2Cc3c([nH]c4ccccc34)[C@@H](c3ccc(Br)cc3)N2C(=O)CN1C1CCN(Cc2ccccc2)CC1
32.3% (inactive)

Quote growth reported for COc1cc(OC)c(C2SCC(=O)N2Nc2ncnc3ccccc23)cc1OC (stereo not given) please.
105% (inactive)

Recall and state the measured growth for CCN1C(=S)N(CC)C2C1NN=C1SC(c3ccccc3)=CC(=O)N12 (stereo not given) .
103% (inactive)
